This listing pairs compounds with measured MIC.
# System: Escherichia coli
# assayProcedure: Antibacterial activity against Escherichia coli ATCC 25922
# Assay type: functional

Recorded MIC, per entry:
State, for Escherichia coli, measured MIC of the compound listed here: CNc1cc(F)cc2c1[nH]c1nc(CNC(=O)c3ocnc3C)nc(N3CCC(NC)C3)c12 (centres undefined)
4 µg/mL

State, for Escherichia coli, measured MIC of the compound listed here: CNc1cc(F)cc2c1[nH]c1nc(CNC(=O)c3cnc(C)o3)nc(N3CCC(N(C)C)C3)c12 (centres undefined)
1 µg/mL

State, for Escherichia coli, measured MIC of the compound listed here: CNc1cc(F)cc2c1[nH]c1nc(CNC(=O)c3cocn3)nc(N3CCC(N)C3)c12 (centres undefined)
128 µg/mL

State, for Escherichia coli, measured MIC of the compound listed here: CNc1cc(F)cc2c1[nH]c1nc(CN)nc(N3CCC(N)C3)c12 (centres undefined)
8 µg/mL

State, for Escherichia coli, measured MIC of the compound listed here: CNc1cc(F)cc2c1[nH]c1nc(CNC(=O)c3ocnc3C)nc(N3CCC(CN)C3)c12 (centres undefined)
8 µg/mL

State, for Escherichia coli, measured MIC of the compound listed here: CNc1cc(F)cc2c1[nH]c1nc(CNC(=O)c3cccnc3)nc(N3CCC(N)C3)c12 (centres undefined)
8 µg/mL

Others:
State, for Escherichia coli, measured MIC of the compound listed here: "CO[C@@H]1[C@@H](OC(N)=O)[C@@H](O)[C@H](Oc2ccc3c(O)c(NC(=O)c4ccc(O)c(CC=C(C)C)c4)c(=O)oc3c2C)OC1(C)C"
> 64 µg/mL

State, for Escherichia coli, measured MIC of the compound listed here: CNc1cc(F)cc2c1[nH]c1nc(CNC(=O)c3cnco3)nc(N3CCC(N)C3)c12 (centres undefined)
4 µg/mL

State, for Escherichia coli, measured MIC of the compound listed here: CNc1cc(F)cc2c1[nH]c1nc(CNC(=O)c3cccnn3)nc(N3CCC(N)C3)c12 (centres undefined)
4 µg/mL
